# target.under.test: Calcium-activated potassium channel subunit alpha-1 (Homo sapiens)
# experiment.description: Channel opening activity at human BKalpha channel expressed in CHOK1 cells assessed as ionic current amplitude at 30 uM at holding potential of -90 mV by population patch clamp technique relative to untreated control
# Format: cell-based
# condition.label: CHO-K1

# smiles.str, target.under.test, Activity / %
records = [
    ("CC(C)c1cc2c(cc1OCc1ccc3ccccc3c1)[C@@]1(C)CCC[C@@](C)(C(=O)O)[C@@H]1CC2", "Calcium-activated potassium channel subunit alpha-1 (Homo sapiens)", 83.7),
    ("CC(C)C(=O)Nc1cc2c(cc1C(C)C)CC[C@H]1[C@](C)(C(=O)O)CCC[C@]21C", "Calcium-activated potassium channel subunit alpha-1 (Homo sapiens)", 130),
    ("CC(C)c1cc2c(cc1NC(=O)Cc1ccccc1)[C@@]1(C)CCC[C@@](C)(C(=O)O)[C@@H]1CC2", "Calcium-activated potassium channel subunit alpha-1 (Homo sapiens)", 90.9),
    ("CC(C)c1cc2c(cc1NC(=O)c1ccc(F)cc1)[C@@]1(C)CCC[C@@](C)(C(=O)O)[C@@H]1CC2", "Calcium-activated potassium channel subunit alpha-1 (Homo sapiens)", 83.4),
    ("CC(C)c1cc2c(cc1NC(=O)C1CC1)[C@@]1(C)CCC[C@@](C)(C(=O)O)[C@@H]1CC2", "Calcium-activated potassium channel subunit alpha-1 (Homo sapiens)", 91.6),
    ("CC(C)c1cc2c(cc1OCc1ccccc1)[C@@]1(C)CCC[C@@](C)(C(=O)O)[C@@H]1CC2", "Calcium-activated potassium channel subunit alpha-1 (Homo sapiens)", 89.5),
    ("CC(C)c1c([N+](=O)[O-])cc2c(c1[N+](=O)[O-])CC[C@H]1[C@](C)(C(=O)O)CCC[C@]21C", "Calcium-activated potassium channel subunit alpha-1 (Homo sapiens)", 200),
    ("CC(C)c1cc2c(cc1NC(=O)Nc1cccc(Cl)c1)[C@@]1(C)CCC[C@@](C)(C(=O)O)[C@@H]1CC2", "Calcium-activated potassium channel subunit alpha-1 (Homo sapiens)", 136),
]

Data origin, for the record: ChEMBL document CHEMBL1141715
